# target_under_test: uPAR-expressing HEC-265 human endometrial adenocarcinoma cells (Homo sapiens, UniProt Q03405)
# Sequence (Q03405 23-335): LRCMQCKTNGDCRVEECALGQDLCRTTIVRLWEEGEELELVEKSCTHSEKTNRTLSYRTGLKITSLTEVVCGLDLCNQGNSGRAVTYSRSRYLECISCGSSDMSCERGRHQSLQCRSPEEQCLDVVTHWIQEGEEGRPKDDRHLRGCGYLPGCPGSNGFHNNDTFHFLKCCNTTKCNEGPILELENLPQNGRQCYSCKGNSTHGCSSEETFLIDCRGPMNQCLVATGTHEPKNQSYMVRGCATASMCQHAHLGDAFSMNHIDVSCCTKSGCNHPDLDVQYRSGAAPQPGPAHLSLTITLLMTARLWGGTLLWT
pIC50: −log10 of the molar value. Where a SMILES comes first, the peptide text is derived from it. Bridges are numbered along the chain shown (N, C = ends). [ ]: non-standard residue; d: D form. The star is where a group is joined. DOTA = O=C(O)CN1CCN(CC(=O)O)CCN(CC(=O)*)CCN(CC(=O)O)CC1; Hyp = O=C(O)[C@@H]1C[C@@H](O)CN1; αMeF = C[C@](N)(Cc1ccccc1)C(=O)O; Pentanoyl(4-Me) = CC(C)CCC(=O)*; Cit = NC(=O)NCCC[C@H](N)C(=O)O; Nva = CCC[C@H](N)C(=O)O; Pentanoyl = CCCCC(=O)*
Provide the recorded pIC50 for the entries that follow.

# lookup: pIC50 of CCCCC(=O)N[C@H]1CSSC[C@@H](C(N)=O)NC(=O)[C@H](CCC)NC(=O)[C@H]([C@@H](C)CC)NC(=O)[C@@H]2C[C@@H](O)CN2C(=O)[C@@H]2CCCN2C(=O)[C@H](Cc2ccccc2)NC(=O)[C@](C)(Cc2ccccc2)NC(=O)[C@H](CCC(N)=O)NC(=O)[C@H](CCCNC(=N)N)NC1=O [UPAR-478] (Pentanoyl-CRQ[αMeF]FP[Hyp]I[Nva]C-NH2; disulfide 1-10)
7.00 to 7.40

# lookup: pIC50 of CCC[C@@H]1NC(=O)[C@@H](C)NC(=O)[C@@H]2CCCN2C(=O)[C@H](Cc2ccccc2)NC(=O)[C@H](Cc2ccc(O)cc2)NC(=O)[C@H](CCC(N)=O)NC(=O)[C@H](CCCNC(N)=O)NC(=O)[C@@H](NC(=O)CCC(C)C)CSSC[C@@H](C(N)=O)NC(=O)[C@H](CC(C)C)NC1=O [UPAR-136] ({Pentanoyl(4-Me)}-C[Cit]QYFP[dA][Nva]LC-NH2; disulfide 1-10)
≥ 8.00

# lookup: pIC50 of CC[C@H](C)[C@@H]1NC(=O)[C@@H](C)NC(=O)[C@@H]2CCCN2C(=O)[C@H](Cc2ccccc2)NC(=O)[C@H](Cc2ccc(O)cc2)NC(=O)[C@H](CCCCNC(=O)CN2CCN(CC(=O)O)CCN(CC(=O)O)CCN(CC(=O)O)CC2)NC(=O)[C@@H](CC(=O)O)NC(=O)[C@@H](NC(=O)[C@H](CC(C)C)NC(=O)[C@H](CC(=O)O)NC(C)=O)CSSC[C@@H](C(N)=O)NC(=O)[C@H](CC(C)C)NC1=O [UPAR-392] (Ac-DLC[dD]K(DOTA)YFP[dA]ILC-NH2; disulfide 3-12)
≤ 6.90

----------
Where a SMILES comes first, the peptide text is derived from it. Bridges are numbered along the chain shown (N, C = ends). [ ]: non-standard residue; d: D form. The star is where a group is joined. Hyp = O=C(O)[C@@H]1C[C@@H](O)CN1; Nle = CCCC[C@H](N)C(=O)O; Nva = CCC[C@H](N)C(=O)O; Pentanoyl = CCCCC(=O)*
measured_parameter: IC50

Form entry - test system: uPAR-expressing HEC-265 human endometrial adenocarcinoma cells (Homo sapiens); read-out: IC50; molecule: CCCC[C@@H]1NC(=O)[C@H](CCCNC(=N)N)NC(=O)[C@@H](NC(=O)[C@H](CC(C)C)NC(=O)[C@H](CC(=O)O)NC(C)=O)CSSC[C@@H](C(N)=O)NC(=O)[C@H](CC(C)C)NC(=O)[C@H]([C@@H](C)CC)NC(=O)[C@@H]2CCCN2C(=O)[C@@H]2CCCN2C(=O)[C@H](Cc2ccccc2)NC(=O)[C@H](Cc2ccc(O)cc2)NC1=O [UPAR-431] (Ac-DLCR[Nle]YFPPILC-NH2; disulfide 3-12)
≤ 10 nM

Form entry - test system: uPAR-expressing HEC-265 human endometrial adenocarcinoma cells (Homo sapiens); read-out: IC50; molecule: CCCCC(=O)N[C@H]1CSSC[C@@H](C(N)=O)NC(=O)[C@H](CCC)NC(=O)[C@H](CCCCN)NC(=O)[C@@H]2C[C@@H](O)CN2C(=O)[C@@H]2CCCN2C(=O)[C@H](Cc2ccccc2)NC(=O)[C@H](Cc2ccc(O)cc2)NC(=O)[C@H](CCC(N)=O)NC(=O)[C@H](CCCNC(=N)N)NC1=O [UPAR-385] (Pentanoyl-CRQYFP[Hyp]K[Nva]C-NH2; disulfide 1-10)
≥ 126 nM

----------
Provide the recorded Kd for the entries that follow.
# target_under_test: human uPAR (uPAR-Fc) (Homo sapiens, UniProt Q03405)
# Construct: comprising amino acids Leu23-Arg303 according to UniProt entry Q03405.1; purchased R&D Systems 10378-UK-100
# experimental_details: Surface plasmon resonance (SPR) assay, single cycle kinetics
# Format: binding
# cond: pKD category for uPAR SPR activity assay; uPAR-Fc on Protein A-Chip, single cycle kinetics, 25°C; read-out: pKD CAT (converted)
Where a SMILES comes first, the peptide text is derived from it. Bridges are numbered along the chain shown (N, C = ends). [ ]: non-standard residue; d: D form. The star is where a group is joined. DOTA = O=C(O)CN1CCN(CC(=O)O)CCN(CC(=O)*)CCN(CC(=O)O)CC1; Dopa = N[C@@H](Cc1ccc(O)c(O)c1)C(=O)O; Hyp = O=C(O)[C@@H]1C[C@@H](O)CN1; αMeF = C[C@](N)(Cc1ccccc1)C(=O)O; Pentanoyl(4-Me) = CC(C)CCC(=O)*; Cha = N[C@@H](CC1CCCCC1)C(=O)O; Cit = NC(=O)NCCC[C@H](N)C(=O)O; NMeL = CN[C@@H](CC(C)C)C(=O)O; Nva = CCC[C@H](N)C(=O)O; Pentanoyl = CCCCC(=O)*; Bz = O=C(c1ccccc1)*

Form entry - test system: human uPAR (uPAR-Fc) (Homo sapiens, UniProt Q03405); read-out: Kd; compound: CCCCC(=O)N[C@H]1CSSC[C@@H](C(N)=O)NC(=O)[C@H](CCC)NC(=O)[C@H]([C@@H](C)CC)NC(=O)[C@@H]2C[C@@H](O)CN2C(=O)[C@@H]2CCCN2C(=O)[C@H](Cc2ccccc2)NC(=O)[C@H](Cc2ccc(O)c(O)c2)NC(=O)[C@H](CCCCNC(=O)CN2CCN(CC(=O)O)CCN(CC(=O)O)CCN(CC(=O)O)CC2)NC(=O)[C@H](CCCNC(N)=O)NC1=O [UPAR-399] (Pentanoyl-C[Cit]K(DOTA)[Dopa]FP[Hyp]I[Nva]C-NH2; disulfide 1-10)
< 1.58 nM

Form entry - test system: human uPAR (uPAR-Fc) (Homo sapiens, UniProt Q03405); read-out: Kd; compound: CC[C@H](C)[C@@H]1NC(=O)[C@@H](C)NC(=O)[C@@H]2CCCN2C(=O)[C@H](Cc2ccccc2)NC(=O)[C@H](Cc2ccc(O)cc2)NC(=O)[C@H](CCC(N)=O)NC(=O)[C@H](CCCNC(N)=O)NC(=O)[C@@H](NC(=O)CCC(C)C)CSSC[C@@H](C(N)=O)NC(=O)[C@H](CC2CCCCC2)NC1=O [UPAR-474] ({Pentanoyl(4-Me)}-C[Cit]QYFP[dA]I[Cha]C-NH2; disulfide 1-10)
> 100 nM

Form entry - test system: human uPAR (uPAR-Fc) (Homo sapiens, UniProt Q03405); read-out: Kd; compound: CCCCC(=O)N[C@H]1CSSC[C@@H](C(N)=O)NC(=O)[C@H](CCC)NC(=O)[C@H]([C@@H](C)CC)NC(=O)[C@@H]2C[C@@H](O)CN2C(=O)[C@@H]2CCCN2C(=O)[C@](C)(Cc2ccccc2)NC(=O)[C@H](Cc2ccc(O)cc2)NC(=O)[C@H](CCCCNC(=O)CN2CCN(CC(=O)O)CCN(CC(=O)O)CCN(CC(=O)O)CC2)NC(=O)[C@H](CCCNC(N)=O)NC1=O [UPAR-416] (Pentanoyl-C[Cit]K(DOTA)Y[αMeF]P[Hyp]I[Nva]C-NH2; disulfide 1-10)
> 100 nM

Form entry - test system: human uPAR (uPAR-Fc) (Homo sapiens, UniProt Q03405); read-out: Kd; compound: CCC[C@@H]1NC(=O)[C@H]([C@@H](C)CC)NC(=O)[C@@H]2C[C@@H](O)CN2C(=O)[C@@H]2CCCN2C(=O)[C@H](Cc2ccccc2)NC(=O)[C@H](Cc2ccc(O)cc2)NC(=O)[C@H](CCC(N)=O)NC(=O)[C@H](CCCNC(=N)N)NC(=O)[C@@H](NC(=O)c2ccccc2)CSSC[C@@H](C(N)=O)NC1=O [UPAR-356] (Bz-CRQYFP[Hyp]I[Nva]C-NH2; disulfide 1-10)
< 1.58 nM

Form entry - test system: human uPAR (uPAR-Fc) (Homo sapiens, UniProt Q03405); read-out: Kd; compound: CC[C@H](C)[C@@H]1NC(=O)[C@@H]2C[C@@H](O)CN2C(=O)[C@@H]2CCCN2C(=O)[C@H](Cc2ccccc2)NC(=O)[C@H](Cc2ccc(O)cc2)NC(=O)[C@H](CCC(N)=O)NC(=O)[C@H](CCCNC(N)=O)NC(=O)[C@@H](NC(=O)[C@H](CC(C)C)NC(=O)CN2CCN(CC(=O)O)CCN(CC(=O)O)CCN(CC(=O)O)CC2)CSSC[C@@H](C(N)=O)NC(=O)[C@H](CC(C)C)N(C)C1=O [UPAR-371] ({DOTA}-LC[Cit]QYFP[Hyp]I[NMeL]C-NH2; disulfide 2-11)
> 100 nM
